Reported cytotoxicity at 10 µM values for a set of compounds
Test: Toxicity liver stage against HepG2, at 10uM
Assay type: cell-based
Parameters: test concentration 10 uM, cell line HepG2-A16-CD81EGFP
Conditions: human, HepG2-A16-CD81EGFP cells; read-out: INHIBITION
Supply the numeric figure in %, leaving out any unit text.

[[record]]
compound = "CC(C)CN1CCC(C(=O)NCCNC(=O)c2ccco2)CC1"
reported_metric = "cytotoxicity at 10 µM"
unit_spec = "%"
endpoint_value = -5.18


Fill in: cytotoxicity at 10 µM of Cc1nc(CCN)cc(N2CCC(O)(c3ccccc3)C2)n1 (configuration not stated) is ___
2.03

Fill in: cytotoxicity at 10 µM of CC(=O)N1CCCC1c1nccnc1Nc1cccc(C)n1 (configuration not stated) is ___
1.31
